# ASSAY SYSTEM: Cytochrome P450 1A2 (Homo sapiens, UniProt P05177)
# Sequence (P05177 whole entry): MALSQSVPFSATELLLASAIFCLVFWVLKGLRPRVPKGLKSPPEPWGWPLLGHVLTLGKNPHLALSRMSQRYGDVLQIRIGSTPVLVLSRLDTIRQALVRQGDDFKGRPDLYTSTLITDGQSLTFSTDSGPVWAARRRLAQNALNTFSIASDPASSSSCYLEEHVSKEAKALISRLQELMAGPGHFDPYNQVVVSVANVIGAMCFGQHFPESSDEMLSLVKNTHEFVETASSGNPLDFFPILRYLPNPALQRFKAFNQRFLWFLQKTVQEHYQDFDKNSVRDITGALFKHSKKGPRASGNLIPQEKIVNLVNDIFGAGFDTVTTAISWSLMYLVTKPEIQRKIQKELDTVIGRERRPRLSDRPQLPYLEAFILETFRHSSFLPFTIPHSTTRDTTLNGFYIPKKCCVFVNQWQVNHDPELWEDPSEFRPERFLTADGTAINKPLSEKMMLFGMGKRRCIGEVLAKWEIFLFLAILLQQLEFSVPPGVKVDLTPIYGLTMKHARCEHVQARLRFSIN
QUANTITY MEASURED: IC50

Documented IC50 of O=C(O)CNC(=O)c1ncc(C#CCOc2ccc(Cl)cc2)cc1O : > 30 µM
